# targetOrSystem: RXRa (Homo sapiens, UniProt P19793)
# Sequence (P19793 whole entry): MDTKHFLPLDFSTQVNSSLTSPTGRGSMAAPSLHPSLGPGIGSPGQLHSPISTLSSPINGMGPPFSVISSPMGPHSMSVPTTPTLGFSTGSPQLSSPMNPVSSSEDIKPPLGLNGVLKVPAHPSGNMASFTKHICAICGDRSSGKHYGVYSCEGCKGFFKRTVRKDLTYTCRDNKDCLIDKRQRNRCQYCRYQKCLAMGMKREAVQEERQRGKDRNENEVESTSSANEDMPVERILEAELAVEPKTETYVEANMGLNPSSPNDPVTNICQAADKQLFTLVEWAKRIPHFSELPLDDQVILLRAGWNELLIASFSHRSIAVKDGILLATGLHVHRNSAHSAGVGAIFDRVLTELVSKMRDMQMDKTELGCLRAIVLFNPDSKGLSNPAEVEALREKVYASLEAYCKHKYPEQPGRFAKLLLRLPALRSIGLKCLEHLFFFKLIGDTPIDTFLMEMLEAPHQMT
# assayText: no ligand; PBM; 180 nM; PBS pH 7.4, 2% milk, 0.02% Triton X-100, 1 mM DTT, BSA, 0.4 mg/ml salmon testes DNA
# condition: tags: His cleaved; chain copies: 2; label: surface-attached array probe
propertyLabel: binding signal

binder: NRC3_wobSeed38_DR1_T16A_o1 (dsDNA) DNA 1: GCCCTGCTAGGTCAAAGGTCAGCTAAAGCAGCTCGCGCGATTGACAGCGTAGAATGAAGG DNA 2: CCTTCATTCTACGCTGTCAATCGCGCGAGCTGCTTTAGCTGACCTTTGACCTAGCAGGGC
obsValue: 10 PBM z-score against 500 random probes
